Form field: Kd (one value per entry).
Molecular target: T1, IFNγR1 fused to the constant region of the antibody IgG1 (UniProt P15260 18-245, limits assumed)
T1 construct: also called IFNGR1; Interferon gamma receptor 1 fused to the Fc region; not shown: constant region (Fc) of IgG1, captured on the chip by an anti-human IgG antibody
T1 sequence (looked up): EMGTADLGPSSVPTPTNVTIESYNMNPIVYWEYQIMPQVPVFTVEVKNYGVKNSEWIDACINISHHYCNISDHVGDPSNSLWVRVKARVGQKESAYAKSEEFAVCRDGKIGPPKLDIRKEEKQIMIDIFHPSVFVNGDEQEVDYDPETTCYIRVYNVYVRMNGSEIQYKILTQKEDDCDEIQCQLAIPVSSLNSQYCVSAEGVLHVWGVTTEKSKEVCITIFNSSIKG
Assay: SPR (Biacore, CM5 chip), IFNγR1-IgG1 Fc captured by anti-human IgG, analyte injected
I only need the number, in nM, no unit after it.

Please review the following examples before continuing.
- binder: "rhIFN-γ-1b-S66C cysteine mutein (ligand, also called IFN-γ-S66C; hIFN-γ S66C) MQDPYVKEAENLKKYFNAGHSDVADNGTLFLGILKNWKEESDRKIMQSQIVSFYFKLFKNFKDDQCIQKSVETIKEDMNVKFFNSNKKKRDDFEKLTNYSVTDLNVQRKAIHELIQVMAELSPAAKTGKRKRSQMLFRGR"
  endpoint: "Kd"
  resultValue: 0.534
- binder: "Compound 1, mono-mPEG-MAL-10K-rhIFN-γ-1b-M135C (ligand, Cys135 thioether-linked to linear mPEG-maleimide of about 10,000 daltons (mPEG-MAL-10K), succinimide ring closed, also called mPEG-MAL-10K-M135C-IFN-γ; M135C 10K linear) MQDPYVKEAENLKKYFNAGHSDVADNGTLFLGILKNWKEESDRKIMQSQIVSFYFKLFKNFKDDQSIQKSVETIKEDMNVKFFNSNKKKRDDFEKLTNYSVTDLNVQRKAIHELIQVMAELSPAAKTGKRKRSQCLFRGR"
  endpoint: "Kd"
  resultValue: 1.42
- binder: "rhIFN-γ-1b-M135C cysteine mutein (ligand, also called IFN-γ-M135C; hIFN-γ M135C) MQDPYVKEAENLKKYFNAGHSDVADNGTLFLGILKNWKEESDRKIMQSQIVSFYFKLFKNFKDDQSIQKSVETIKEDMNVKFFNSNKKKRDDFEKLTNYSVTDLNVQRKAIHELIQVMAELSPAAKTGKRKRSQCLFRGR"
  endpoint: "Kd"
  resultValue: 0.123
- binder: "Compound 3, mono-mPEG2-ru-MAL-20K-rhIFN-γ-1b-M135C (ring closed) (ligand, Cys135 thioether-linked to branched mPEG2-maleimide of about 20,000 daltons (mPEG2-MAL-20K), succinimide ring closed, also called mPEG2-MAL-20K-M135C-IFN-γ; M135C 20K branched (RC)) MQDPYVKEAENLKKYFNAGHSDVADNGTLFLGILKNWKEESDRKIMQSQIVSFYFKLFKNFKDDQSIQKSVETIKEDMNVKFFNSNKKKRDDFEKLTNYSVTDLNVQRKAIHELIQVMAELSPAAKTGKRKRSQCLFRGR"
  endpoint: "Kd"
  resultValue: 4.9

Next binder, Kd to be filled in.
Kd measured on rhIFN-γ-1b (wild-type recombinant human interferon-γ-1b) (ligand, also called wt (rhIFN-γ-1b); WT IFN-γ-1b (Actimmune)) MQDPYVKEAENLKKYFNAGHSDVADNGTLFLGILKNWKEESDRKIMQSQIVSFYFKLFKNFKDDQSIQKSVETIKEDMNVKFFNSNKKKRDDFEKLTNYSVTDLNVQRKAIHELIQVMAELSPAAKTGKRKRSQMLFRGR = 0.0655

The origin of these recorded values is patent US20250270273A1.
